# assayed.target: Mitogen-activated protein kinase 14 (Homo sapiens, UniProt Q16539)
# Sequence (Q16539 whole entry): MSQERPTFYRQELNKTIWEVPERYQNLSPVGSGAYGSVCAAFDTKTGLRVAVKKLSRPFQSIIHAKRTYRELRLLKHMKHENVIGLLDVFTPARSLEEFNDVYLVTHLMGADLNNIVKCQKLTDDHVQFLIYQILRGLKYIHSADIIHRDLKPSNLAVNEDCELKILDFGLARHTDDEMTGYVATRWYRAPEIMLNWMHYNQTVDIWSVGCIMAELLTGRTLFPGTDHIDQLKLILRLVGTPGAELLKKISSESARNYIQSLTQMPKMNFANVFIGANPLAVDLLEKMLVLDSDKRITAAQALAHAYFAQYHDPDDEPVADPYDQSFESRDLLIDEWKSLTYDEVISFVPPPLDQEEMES
# method: Inhibition of human recombinant p38alpha-mediated […] phosphorylation after 1 hr by HTRF assay
Entries annotated with measured pKi
The scale used: pKi is minus the common logarithm of the concentration in molar units.

compound_structure=Cc1ccc(C(=O)NC2CC2)cc1-c1cc2cnn(-c3ccccc3C)c2n(C)c1=O readout_name=pKi reported=8.72
compound_structure=Cc1ccc(C(=O)NC2CC2)cc1-c1cc2cnn(-c3ncccc3C(F)(F)F)c2n(C)c1=O readout_name=pKi reported=8.64
compound_structure=CCn1c(=O)c(-c2cc(C(=O)NC3CC3)ccc2C)cc2cnn(-c3ccc(F)cc3F)c21 readout_name=pKi reported=9.22
compound_structure=Cc1ccc(C(=O)O)cc1-c1cc2cnn(-c3c(F)cccc3F)c2n(C)c1=O readout_name=pKi reported=6.34
compound_structure=Cc1ccc(C(=O)NC2CC2)cc1-c1cc2cnn(-c3cc(F)ccc3F)c2n(C)c1=O readout_name=pKi reported=8.72
compound_structure=Cc1ccc(C(N)=O)cc1-c1cc2cnn(-c3c(F)cccc3F)c2n(C)c1=O readout_name=pKi reported=8.82
compound_structure=Cc1ccc(C(=O)NC2CC2)cc1-c1cc2cnn(-c3ccccc3Cl)c2n(C)c1=O readout_name=pKi reported=9.05
compound_structure=Cc1ccc(C(=O)Nc2ccon2)cc1-c1cc2cnn(-c3c(F)cccc3F)c2n(C)c1=O readout_name=pKi reported=9.00

Then this compound:
// compound `Cc1ccc(C(=O)NC2(C)CC2)cc1-c1cc2cnn(-c3c(F)cccc3F)c2n(C)c1=O` , assay Mitogen-activated protein kinase 14 (Homo sapiens, UniProt Q16539), pKi value: 8.77

---

# assayed.target: Mitogen-activated protein kinase 11 (Homo sapiens)
# Sequence (Q15759 whole entry): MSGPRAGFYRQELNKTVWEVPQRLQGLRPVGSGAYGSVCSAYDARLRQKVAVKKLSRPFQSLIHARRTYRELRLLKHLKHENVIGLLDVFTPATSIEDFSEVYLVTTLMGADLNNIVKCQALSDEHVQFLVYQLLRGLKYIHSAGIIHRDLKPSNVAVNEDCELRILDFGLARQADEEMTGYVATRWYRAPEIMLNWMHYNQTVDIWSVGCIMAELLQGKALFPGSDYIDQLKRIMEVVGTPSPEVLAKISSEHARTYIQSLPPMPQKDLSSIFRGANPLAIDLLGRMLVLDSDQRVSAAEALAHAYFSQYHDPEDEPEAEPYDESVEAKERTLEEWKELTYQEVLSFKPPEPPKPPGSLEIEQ
# method: Binding affinity to p38beta
readout.name: Kd (nM)
Respond numerically; units are nM and should not be typed.

Lookup result for `Cc1ccc(C(=O)NC2CC2)cc1-c1cc2cnn(-c3c(F)cccc3F)c2n(C)c1=O` ; measured Kd: 0.67

---

# assayed.target: Cytochrome P450 2D6 (Homo sapiens)
# Sequence (P10635 whole entry): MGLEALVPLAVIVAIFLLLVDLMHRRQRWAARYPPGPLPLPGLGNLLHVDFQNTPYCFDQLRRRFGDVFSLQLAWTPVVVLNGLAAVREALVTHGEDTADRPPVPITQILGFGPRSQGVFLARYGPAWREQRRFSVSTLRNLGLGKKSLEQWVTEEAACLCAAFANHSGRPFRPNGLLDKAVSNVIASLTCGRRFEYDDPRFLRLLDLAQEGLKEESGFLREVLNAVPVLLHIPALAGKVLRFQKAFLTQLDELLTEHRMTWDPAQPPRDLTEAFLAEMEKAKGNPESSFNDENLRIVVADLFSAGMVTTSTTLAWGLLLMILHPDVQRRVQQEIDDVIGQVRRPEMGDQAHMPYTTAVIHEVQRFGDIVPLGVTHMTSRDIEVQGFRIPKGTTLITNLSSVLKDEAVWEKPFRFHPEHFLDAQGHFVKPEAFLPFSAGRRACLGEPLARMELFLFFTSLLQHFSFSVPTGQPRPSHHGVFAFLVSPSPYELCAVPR
readout.name: IC50

Lookup result for `Cc1ccc(C(=O)NC2CC2)cc1-c1cc2cnn(-c3c(F)cccc3F)c2n(C)c1=O` ; measured IC50: > 25 µM

---

# method: in vitro
# experimental.conditions: human, Caco-2
readout.name: Papp B→A (×10⁻⁶ cm/s)
Respond numerically; units are ×10⁻⁶ cm/s and should not be typed.

compound_structure=Cc1ccc(C(=O)NC2CC2)cc1-c1cc2cnn(-c3ccc(F)cc3F)c2n(C)c1=O reported=29

Then this compound:
Lookup result for `Cc1ccc(C(=O)NC2CC2)cc1-c1cc2cnn(-c3c(F)cccc3F)c2n(C)c1=O` ; measured Papp B→A: 27

---

# Test system: Blood
# method: Inhibition of IL-8 production in TNFalpha challenged human whole blood after 16 to 18 hrs
# Format: functional, tissue-based
# experimental.conditions: Homo sapiens, Blood; read-out: IC50
Entries annotated with measured pIC50
The scale used: pIC50 is minus the common logarithm of the concentration in molar units.

compound_structure=CCn1c(=O)c(-c2cc(C(=O)NC3CC3)ccc2C)cc2cnn(-c3ccc(F)cc3F)c21 reported=8.62
compound_structure=Cc1ccc(C(=O)NC2CC2)cc1-c1cc2cnn(-c3c(F)cccc3F)c2n(C)c1=O reported=8.77
compound_structure=Cc1ccc(C(=O)NC2CC2)cc1-c1cc2c(C)nn(-c3c(F)cccc3F)c2n(C)c1=O reported=7.40
compound_structure=Cc1ccc(C(=O)NC2(C)CC2)cc1-c1cc2cnn(-c3c(F)cccc3F)c2n(C)c1=O reported=7.96
compound_structure=Cc1ccc(C(=O)NC2CC2)cc1-c1cc2cnn(-c3ncccc3C(F)(F)F)c2n(C)c1=O reported=7.62
compound_structure=Cc1ccc(C(=O)NC2CC2)cc1-c1cc2cnn(-c3ccccc3C)c2n(C)c1=O reported=7.92

Then this molecule:
Lookup result for `Cc1ccc(C(N)=O)cc1-c1cc2cnn(-c3c(F)cccc3F)c2n(C)c1=O` ; measured pIC50: 8.19

---

Entries annotated with measured AUC(0-inf)
# method: AUC (0 to infinity) in Sprague-Dawley rat at 2 mg/kg, po
# Type: ADME, organism-based
# Set-up: time infinity, dose 2 mg/kg, route oral
# experimental.conditions: plasma
Respond numerically; units are ng·h/mL and should not be typed.

compound_structure=Cc1ccc(C(N)=O)cc1-c1cc2cnn(-c3c(F)cccc3F)c2n(C)c1=O result_unit=ng·h/mL reported=2390
compound_structure=Cc1ccc(C(=O)NC2CC2)cc1-c1cc2cnn(-c3cc(F)ccc3F)c2n(C)c1=O result_unit=ng·h/mL reported=782
compound_structure=Cc1ccc(C(=O)NC2CC2)cc1-c1cc2cnn(-c3ccc(F)cc3F)c2n(C)c1=O result_unit=ng·h/mL reported=5120
compound_structure=CNc1noc2c(-c3cc4cnn(-c5c(F)cccc5F)c4n(C)c3=O)c(C)ccc12 result_unit=ng·h/mL reported=515
compound_structure=Cc1ccc(C(=O)NC2CC2)cc1-c1cc2cnn(-c3c(F)cccc3F)c2n(C)c1=O result_unit=ng·h/mL reported=3990

Then this molecule:
Lookup result for `Cn1c(=O)c(-c2cc(C(=O)NC3CC3)ccc2Cl)cc2cnn(-c3c(F)cccc3F)c21` ; measured AUC(0-inf): 8860

---

# assayed.target: Tyrosine-protein kinase Lck (Homo sapiens)
# Sequence (P06239 whole entry): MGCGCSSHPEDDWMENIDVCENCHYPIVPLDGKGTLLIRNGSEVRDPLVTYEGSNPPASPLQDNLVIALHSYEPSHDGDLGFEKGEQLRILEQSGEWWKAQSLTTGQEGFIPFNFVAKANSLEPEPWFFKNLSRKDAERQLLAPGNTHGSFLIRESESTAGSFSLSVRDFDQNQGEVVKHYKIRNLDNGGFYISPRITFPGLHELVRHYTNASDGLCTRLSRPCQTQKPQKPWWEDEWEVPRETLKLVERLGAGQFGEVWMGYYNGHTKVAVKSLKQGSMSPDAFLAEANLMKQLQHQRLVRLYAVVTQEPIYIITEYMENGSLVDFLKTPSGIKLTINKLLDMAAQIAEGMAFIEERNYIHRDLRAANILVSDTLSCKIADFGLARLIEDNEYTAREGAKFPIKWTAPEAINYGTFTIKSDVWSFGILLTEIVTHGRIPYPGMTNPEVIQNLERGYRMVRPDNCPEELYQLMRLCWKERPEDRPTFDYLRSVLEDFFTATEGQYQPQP
readout.name: pKd
The scale used: pKd is minus the common logarithm of the concentration in molar units.

Here is how some compounds turned out for pKd.
compound_structure=Cc1ccc(C(=O)NC2CC2)cc1-c1ccc2c(-c3ccccc3F)nncc2c1 readout_name=pKd reported=6.28
compound_structure=Cc1ccc(C(=O)NC2CC2)cc1-c1cc2cnn(-c3ccc(F)cc3F)c2n(C)c1=O readout_name=pKd reported=4.40

Then this compound:
// compound `Cc1ccc(C(=O)NC2CC2)cc1-c1cc2cnn(-c3ccccc3F)c2n(C)c1=O` , assay Tyrosine-protein kinase Lck (Homo sapiens), pKd value: 4.40

---

Entries annotated with measured pKd
# assayed.target: Mast/stem cell growth factor receptor Kit (Homo sapiens, UniProt P10721)
# Sequence (P10721 whole entry): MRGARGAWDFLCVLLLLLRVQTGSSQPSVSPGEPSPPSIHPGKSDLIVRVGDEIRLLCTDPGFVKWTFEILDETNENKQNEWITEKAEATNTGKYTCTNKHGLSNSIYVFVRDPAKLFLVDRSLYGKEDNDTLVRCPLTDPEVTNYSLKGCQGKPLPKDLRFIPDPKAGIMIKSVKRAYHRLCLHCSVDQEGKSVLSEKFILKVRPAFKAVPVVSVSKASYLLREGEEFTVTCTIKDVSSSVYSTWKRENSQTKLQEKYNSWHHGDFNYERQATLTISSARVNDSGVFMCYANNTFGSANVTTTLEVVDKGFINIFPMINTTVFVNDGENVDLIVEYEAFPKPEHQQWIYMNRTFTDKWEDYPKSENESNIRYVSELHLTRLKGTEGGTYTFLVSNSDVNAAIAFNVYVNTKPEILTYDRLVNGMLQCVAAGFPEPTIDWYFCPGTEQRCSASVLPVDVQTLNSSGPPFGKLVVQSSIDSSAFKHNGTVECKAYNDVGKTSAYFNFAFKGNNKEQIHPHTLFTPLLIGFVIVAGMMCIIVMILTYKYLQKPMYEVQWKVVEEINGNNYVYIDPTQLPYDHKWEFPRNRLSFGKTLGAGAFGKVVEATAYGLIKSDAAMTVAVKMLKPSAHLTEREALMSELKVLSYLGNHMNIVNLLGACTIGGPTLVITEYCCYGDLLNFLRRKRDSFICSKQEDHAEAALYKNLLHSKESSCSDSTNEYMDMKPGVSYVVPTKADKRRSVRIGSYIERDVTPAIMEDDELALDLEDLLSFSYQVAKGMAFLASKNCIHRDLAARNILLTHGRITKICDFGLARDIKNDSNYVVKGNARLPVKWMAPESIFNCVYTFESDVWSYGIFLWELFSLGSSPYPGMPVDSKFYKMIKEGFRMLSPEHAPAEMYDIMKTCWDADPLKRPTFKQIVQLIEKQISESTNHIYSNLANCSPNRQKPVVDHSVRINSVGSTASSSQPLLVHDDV
The scale used: pKd is minus the common logarithm of the concentration in molar units.

Here is how some compounds turned out for pKd.
compound_structure=Cc1ccc(C(=O)NC2CC2)cc1-c1cc2cnn(-c3ccc(F)cc3F)c2n(C)c1=O reported=4.89
compound_structure=Cc1ccc(C(=O)NC2CC2)cc1-c1ccc2c(-c3ccccc3F)nncc2c1 reported=8.62

Then this compound:
// compound `Cc1ccc(C(=O)NC2CC2)cc1-c1cc2cnn(-c3ccccc3F)c2n(C)c1=O` , assay Mast/stem cell growth factor receptor Kit (Homo sapiens, UniProt P10721), pKd value: 5.77

---

# method: Cmax in porcine type 2 collagen-induced arthritis Lewis rat model at 0.01 to 1 mg/kg, po
# Format: ADME, organism-based
# Parameters: dose 0.01-1 mg/kg, route oral
# experimental.conditions: in vivo
readout.name: Cmax (nM)
Respond numerically; units are nM and should not be typed.

Lookup result for `Cc1ccc(C(=O)NC2CC2)cc1-c1cc2cnn(-c3c(F)cccc3F)c2n(C)c1=O` ; measured Cmax: 11

---

# assayed.target: Cytochrome P450 3A4 (Homo sapiens, UniProt P08684)
# Sequence (P08684 whole entry): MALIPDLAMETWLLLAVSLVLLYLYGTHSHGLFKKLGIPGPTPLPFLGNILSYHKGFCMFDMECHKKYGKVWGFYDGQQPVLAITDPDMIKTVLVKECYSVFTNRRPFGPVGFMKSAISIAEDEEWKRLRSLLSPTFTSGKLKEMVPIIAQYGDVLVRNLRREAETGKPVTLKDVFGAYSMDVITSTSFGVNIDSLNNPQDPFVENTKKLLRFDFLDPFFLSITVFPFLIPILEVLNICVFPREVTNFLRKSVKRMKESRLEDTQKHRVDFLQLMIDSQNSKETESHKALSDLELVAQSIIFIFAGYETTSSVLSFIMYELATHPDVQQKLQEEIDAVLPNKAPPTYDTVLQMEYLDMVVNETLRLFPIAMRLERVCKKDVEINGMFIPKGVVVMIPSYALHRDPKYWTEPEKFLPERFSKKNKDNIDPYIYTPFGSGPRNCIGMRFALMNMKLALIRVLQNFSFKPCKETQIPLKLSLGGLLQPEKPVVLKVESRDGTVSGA
# method: Inhibition of CYP3A4
# Format: ADME
readout.name: IC50 (nM)
Respond numerically; units are nM and should not be typed.

Lookup result for `CCn1c(=O)c(-c2cc(C(=O)NC3CC3)ccc2C)cc2cnn(-c3ccc(F)cc3F)c21` ; measured IC50: 1600
